// pKi lookup, one value per entry
# system.name: hCRTH2 (Homo sapiens, UniProt Q9Y5Y4)
# Construct: expressed in transfected cells; host or cells: HEK (human embryonic kidney) cells expressing hCRTH2; membrane preparation
# protocol: Radioligand binding assay ([3H]PGD2 competition, HEK-hCRTH2 membranes)
# condition.notes: [3H]PGD2 competition, Table B
pKi: −log10 of the molar value.

{"columns": ["molecule", "pKi"],
 "data": [
  ["CC(CCc1nc2cc(C(=O)N[C@H](C)c3ccc(F)cc3)ccc2nc1-c1ccc(F)cc1)CC(=O)O (some centres unmarked)", "8.70 to 10.00"],
  ["O=C(O)CCCCc1nc2cc(C(=O)N[C@@H]3CCCc4ccccc43)c(F)cc2nc1-c1ccc(F)cc1", "7.70 to 8.68"],
  ["CC(CCCc1nc2cc(C(=O)N[C@H](C)c3ccc(F)cc3)ccc2nc1-c1ccc(Cl)cc1)C(=O)O (some centres unmarked) [compound 408]", "8.70 to 10.00"],
  ["O=C(O)CCCCc1nc2cc(C(=O)N3CCn4ccnc4C3)ccc2nc1-c1ccc(Cl)cc1", "6.15 to 6.70"],
  ["CN1CCN(C(=O)c2ccc3nc(-c4ccc(Cl)cc4)c(CCCCC(=O)O)nc3c2)C(c2ccccc2)C1 (centres unmarked)", "7.70 to 8.68"],
  ["C[C@@H](NC(=O)c1ccc2nc(-c3ccccc3)c(CCCCC(=O)O)nc2c1)c1cccc2ncccc12", "6.70 to 7.70"],
  ["O=C(O)CCCCc1nc2cc(C(=O)N3CCN(c4nc5ccccc5o4)CC3)ccc2nc1-c1ccc(Cl)cc1", "7.70 to 8.68"],
  ["CN(Cc1ccc(F)cc1)C(=O)c1ccc2nc(-c3ccc(Cl)cc3)c(CCCc3cccc(CC(=O)O)c3)nc2c1", "6.70 to 7.70"],
  ["C[C@H](CCc1nc2cc(C(=O)N[C@H]3CCCc4ccccc43)ccc2nc1-c1ccccc1)CC(=O)O", "7.70 to 8.68"],
  ["C[C@H](CCCc1nc2cc(C(=O)N[C@H](C)c3ccc(F)cc3)ccc2nc1-c1ccc(F)cc1)C(=O)O", "6.70 to 7.70"],
  ["O=C(O)CCCCc1nc2cc(C(=O)N[C@@H]3CCSc4ccccc43)ccc2nc1-c1ccccc1", "7.70 to 8.68"]
]}

* * *

# system.name: hCRTH2 (Homo sapiens)
# Construct: expressed in transfected cells; host or cells: HEK (human embryonic kidney) cells expressing hCRTH2; membrane preparation
# Sequence (Q9Y5Y4 1-395): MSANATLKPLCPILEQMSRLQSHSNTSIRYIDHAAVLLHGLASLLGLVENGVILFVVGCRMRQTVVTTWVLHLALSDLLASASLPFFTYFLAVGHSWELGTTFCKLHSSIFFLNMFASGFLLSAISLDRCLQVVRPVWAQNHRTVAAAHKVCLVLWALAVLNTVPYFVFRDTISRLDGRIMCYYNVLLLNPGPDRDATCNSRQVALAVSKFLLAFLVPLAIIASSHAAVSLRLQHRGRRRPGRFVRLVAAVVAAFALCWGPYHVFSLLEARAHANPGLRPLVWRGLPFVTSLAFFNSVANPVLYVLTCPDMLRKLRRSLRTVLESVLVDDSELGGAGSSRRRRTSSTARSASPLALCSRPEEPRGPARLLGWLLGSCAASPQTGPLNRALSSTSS
# protocol: Radioligand binding assay ([3H]PGD2 competition, HEK-hCRTH2 membranes)
# condition.notes: [3H]PGD2 binding, rated A-E (Table A)
pKi: −log10 of the molar value.

{"columns": ["compound", "pKi"],
 "data": [
  ["O=C(O)CCCNc1nc2cc(C(=O)N3CCN(c4ccccc4)CC3)ccc2nc1-c1ccccc1 [44F]", "7.70 to 8.68"],
  ["O=C(O)CCCCc1nc2cc(C(=O)N[C@H]3CCCc4cc(F)ccc43)ccc2nc1-c1ccc(Cl)cc1", "7.70 to 8.68"],
  ["O=C(O)CCCCc1nc2cc(C(=O)NCc3cccc(Cl)c3)ccc2nc1-c1ccc(F)cc1", "7.70 to 8.68"],
  ["N#CC1(c2ccccc2)CCN(C(=O)c2ccc3nc(-c4ccc(Cl)cc4)c(CCCCC(=O)O)nc3c2)CC1 [16AK]", "8.70 to 10.00"],
  ["CC(CCc1nc2cc(C(=O)N3CC[C@H](c4ccccc4)C3)ccc2nc1-c1ccc(Cl)cc1)CC(=O)O (some centres unmarked) [17L]", "7.70 to 8.68"],
  ["C[C@H](NC(=O)c1ccc2nc(-c3ccc(Cl)cc3)c(CCCCC(=O)O)nc2c1)c1cccnc1", "7.70 to 8.68"],
  ["Cc1ccc(CNC(=O)c2ccc3nc(-c4ccc(Cl)cc4)c(CCCCC(=O)O)nc3c2)cc1 [16AQ]", "8.70 to 10.00"],
  ["N#Cc1ccc(CNC(=O)c2ccc3nc(-c4ccc(F)cc4)c(CCCCC(=O)O)nc3c2)cc1", "7.70 to 8.68"],
  ["CN(Cc1ccccc1)C(=O)c1ccc2nc(-c3ccccc3)c(OCCCC(=O)O)nc2c1 [10E]", "8.70 to 10.00"],
  ["CN(Cc1cccc(F)c1)C(=O)c1ccc2nc(-c3ccc(F)cc3)c(CCc3cccc(CC(=O)O)c3)nc2c1", "8.70 to 10.00"],
  ["O=C(O)CCCCc1nc2cc(C(=O)N3CCC(c4ncccn4)CC3)ccc2nc1-c1ccccc1", "7.70 to 8.68"],
  ["C[C@@H](NC(=O)c1ccc2nc(-c3ccc(Cl)cc3)c(CC3CC(C(=O)O)C3)nc2c1)c1ccc(F)cc1 (some centres unmarked) [30E]", "7.70 to 8.68"],
  ["O=C(O)CCCCc1nc2cc(C(=O)N[C@H]3CCCc4cc(Cl)ccc43)ccc2nc1-c1ccc(F)cc1", "7.70 to 8.68"],
  ["C[C@@H](NC(=O)c1ccc2nc(-c3ccc(C(F)(F)F)cc3)c(CCCCC(=O)O)nc2c1)c1ccccc1", "7.70 to 8.68"],
  ["CC(CCCc1nc2cc(C(=O)N3CC(c4ccccc4)C3)ccc2nc1-c1ccc(F)cc1)C(=O)O (centres unmarked)", "7.70 to 8.68"],
  ["O=C(O)CCCCc1nc2cc(C(=O)N[C@H]3CCc4cc(Cl)ccc43)ccc2nc1-c1ccc(F)cc1", "8.70 to 10.00"],
  ["CC(NC(=O)c1ccc2nc(-c3ccc(C(F)(F)F)cc3)c(CCCCC(=O)O)nc2c1)c1ccncc1 (centres unmarked)", "7.70 to 8.68"],
  ["O=C(O)CCCCc1nc2cc(C(=O)NCc3ccc(Cl)cc3)cnc2nc1-c1ccccc1 [14D]", "7.70 to 8.68"],
  ["CC(CCc1nc2cc(C(=O)N[C@H](c3ccccc3)C(F)(F)F)ccc2nc1-c1ccc(Cl)cc1)CC(=O)O (some centres unmarked) [17N]", "7.70 to 8.68"],
  ["CCC(=O)c1ccc2nc(-c3ccccc3)c(CCCCC(=O)O)nc2c1", "8.70 to 10.00"],
  ["O=C(O)CCCCc1nc2cc(C(=O)N3CCN(c4ccccc4)CC3)ccc2nc1-c1ccc(Cl)cc1 [16AG]", "8.70 to 10.00"],
  ["C[C@@H](NC(=O)c1ccc2nc(-c3ccc(F)cc3)c(CCCCC(=O)O)nc2c1)c1ccc(Cl)cc1", "8.70 to 10.00"],
  ["O=C(O)CCCCc1nc2cc(C(=O)NC3CCc4ccccc43)ccc2nc1-c1ccccc1 (centres unmarked) [15AT]", "8.70 to 10.00"],
  ["C[C@H](NC(=O)c1ccc2nc(-c3ccc(F)cc3)c(CCc3cccc(CC(=O)O)c3)nc2c1)c1ccc(F)cc1", "6.70 to 7.70"],
  ["O=C(O)Cc1cccc(CCc2nc3cc(C(=O)N[C@@H](c4ccccc4)C(F)(F)F)ccc3nc2-c2ccc(Cl)cc2)c1 [19J]", "6.70 to 7.70"],
  ["COc1ccc(CNC(=O)c2ccc3nc(-c4ccccc4)c(CCCCC(=O)O)nc3c2)cc1 [15BA]", "8.70 to 10.00"]
]}

* * *

# system.name: hCRTH2 (Homo sapiens)
# Construct: expressed in transfected cells; host or cells: HEK (human embryonic kidney) cells expressing hCRTH2; membrane preparation
# protocol: Radioligand binding assay ([3H]PGD2 competition, HEK-hCRTH2 membranes)
# condition.notes: [3H]PGD2 competition, Table B
pKi: −log10 of the molar value.

{"columns": ["molecule", "system.name", "pKi"],
 "data": [
  ["N#CC1(c2ccccc2)CCN(C(=O)c2ccc3nc(-c4ccc(Cl)cc4)c(CCCCC(=O)O)nc3c2)C1 (stereo not shown)", "hCRTH2 (Homo sapiens)", "8.70 to 10.00"],
  ["N#Cc1cccnc1N1CCN(C(=O)c2ccc3nc(-c4ccc(Cl)cc4)c(CCCCC(=O)O)nc3c2)CC1", "hCRTH2 (Homo sapiens)", "8.70 to 10.00"],
  ["C[C@@H](CCCc1nc2cc(C(=O)N[C@@H]3CCCc4ncccc43)ccc2nc1-c1ccc(F)cc1)C(=O)O", "hCRTH2 (Homo sapiens)", "6.70 to 7.70"],
  ["O=C(O)CCCCc1nc2cc(C(=O)N[C@@H]3CCCc4ccccc43)c(F)cc2nc1-c1ccccc1", "hCRTH2 (Homo sapiens)", "7.70 to 8.68"]
]}
